Molecular target: Human TRPC6 (Homo sapiens, UniProt Q9Y210)
Construct: expressed in transfected cells
Experiment: Evaluation of TRPC6 channel inhibitory activity (1), FLIPR Calcium 5 Assay Kit, OAG stimulation (Compound Nos. 1-1293)
Assay type: cell-based
Settings: Human TRPC6 stably-expressing cells, OAG 30 μM, FLIPR Calcium 5 Assay Kit; read-out: Inhibitory activity (pIC50 class) (converted)
property_name: IC50

{"compound": "Cc1nc(CN2CCCC2)cn1Cc1cc(C#N)ccc1-c1ncc(CCN)cn1 [compound 1175]", "IC50": "> 1000 nM"}
{"compound": "N#Cc1ccc(-c2ncc(CCN)cn2)c(Oc2nnc(-c3cccnc3)s2)c1 [compound 729]", "IC50": "10 to 1000 nM"}
{"compound": "Cc1cc(Oc2cc(C#N)ccc2-c2ccc(CN)cn2)n(C)n1 [compound 323]", "IC50": "10 to 1000 nM"}
{"compound": "Cc1cc(Oc2cc(C#N)c(C)cc2-c2ncc(CCN)cn2)cc(N2CCOCC2)n1 [compound 900]", "IC50": "< 10 nM"}

// moving on: another record for IC50
Query :: Please report the recorded IC50 for Cc1nc(Oc2cc(C#N)ccc2-c2ccc([C@H](O)CN)cn2)cc(N2CCCCC2)n1 [compound 509] .
Result :: < 10 nM

====

Biological target: Human TRPC6 (Homo sapiens)
Construct: expressed in transfected cells
Assay: Evaluation of TRPC6 channel inhibitory activity (1), FLIPR Calcium 5 Assay Kit, OAG stimulation (Compound Nos. 1-1293)
Format: cell-based
Conditions: Human TRPC6 stably-expressing cells, OAG 30 μM, FLIPR Calcium 5 Assay Kit; read-out: Inhibitory activity (pIC50 class) (converted)
property_name: IC50

See these solved cases before continuing.
{"compound": "Cc1ccccc1-c1cn(Cc2cc(C#N)ccc2-c2ccc(CCN)cn2)c(C)n1", "result": "< 10 nM"}
{"compound": "Cc1nc(Oc2cc(C#N)ccc2-n2cc([C@@H](O)CN)cn2)cc(N2CC(F)(F)C2)n1", "result": "10 to 1000 nM"}
{"compound": "CN(C)c1cc(Sc2cc(C#N)ccc2-c2ncc(CN)cn2)cnn1", "result": "> 1000 nM"}
{"compound": "Cn1nc(C2CC2)cc1Oc1cc(C#N)ccc1-c1cc(CN)cn2ccnc12", "result": "10 to 1000 nM"}
{"compound": "Cn1nc(C2CCCO2)cc1Oc1cc(C#N)ccc1-c1ccc(CCN)cn1 (stereo not drawn)", "result": "< 10 nM"}

Query :: Provide the documented IC50 with Human TRPC6 (Homo sapiens) as the system for Cn1nc(C2CC2)cc1Oc1cc(C#N)ccc1-c1ccc(OCCN)cn1
Result :: < 10 nM

Query :: Provide the documented IC50 with Human TRPC6 (Homo sapiens) as the system for N#Cc1ccc(-c2ncc(CCN)cn2)c(Oc2nnc(N3CCOCC3)s2)c1
Result :: 10 to 1000 nM

Query :: Provide the documented IC50 with Human TRPC6 (Homo sapiens) as the system for CN(C)c1cc(Oc2cc(C#N)ccc2-c2ccc(CN)cn2)cnn1
Result :: 10 to 1000 nM

Query :: Provide the documented IC50 with Human TRPC6 (Homo sapiens) as the system for N#Cc1ccc(-c2ncc(CN)cn2)c(Oc2nnc(N3CCCC3)s2)c1
Result :: > 1000 nM

Query :: Provide the documented IC50 with Human TRPC6 (Homo sapiens) as the system for N#Cc1ccc(-c2ncc(CCN)cn2)c(Cn2cc(C3CC3)nn2)c1
Result :: < 10 nM

====

Molecular target: Human TRPC6 (Homo sapiens, UniProt Q9Y210)
Construct: expressed in transfected cells
Sequence (Q9Y210 1-931): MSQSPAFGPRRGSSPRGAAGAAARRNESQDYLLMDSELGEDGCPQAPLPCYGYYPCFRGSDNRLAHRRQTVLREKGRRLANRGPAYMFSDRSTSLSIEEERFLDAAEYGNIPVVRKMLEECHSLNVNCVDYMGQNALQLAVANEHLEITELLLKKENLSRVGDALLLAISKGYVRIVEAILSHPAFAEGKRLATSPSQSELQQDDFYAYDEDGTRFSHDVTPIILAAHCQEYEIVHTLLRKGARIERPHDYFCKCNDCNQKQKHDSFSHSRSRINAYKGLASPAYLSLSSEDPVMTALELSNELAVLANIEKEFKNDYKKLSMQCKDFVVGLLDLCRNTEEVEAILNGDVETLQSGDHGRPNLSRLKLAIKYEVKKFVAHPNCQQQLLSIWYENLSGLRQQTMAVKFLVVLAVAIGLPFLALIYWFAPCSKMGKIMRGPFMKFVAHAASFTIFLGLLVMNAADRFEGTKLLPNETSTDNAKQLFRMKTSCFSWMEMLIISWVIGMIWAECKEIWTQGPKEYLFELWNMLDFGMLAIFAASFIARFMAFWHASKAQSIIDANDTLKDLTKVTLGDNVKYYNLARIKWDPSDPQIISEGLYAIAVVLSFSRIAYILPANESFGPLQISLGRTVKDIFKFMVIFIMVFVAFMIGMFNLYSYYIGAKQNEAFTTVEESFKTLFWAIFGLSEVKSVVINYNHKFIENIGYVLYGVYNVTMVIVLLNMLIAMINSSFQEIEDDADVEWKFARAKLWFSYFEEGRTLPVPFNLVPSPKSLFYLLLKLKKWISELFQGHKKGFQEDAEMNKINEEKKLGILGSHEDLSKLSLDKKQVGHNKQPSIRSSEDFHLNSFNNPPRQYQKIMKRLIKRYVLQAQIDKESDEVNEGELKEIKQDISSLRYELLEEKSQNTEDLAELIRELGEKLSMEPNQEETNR
Assay: Evaluation of TRPC6 channel inhibitory activity (1), FLIPR Calcium 5 Assay Kit, OAG stimulation (Compound Nos. 1-1293)
Type: cell-based
Conditions: Human TRPC6 stably-expressing cells, OAG 30 μM, FLIPR Calcium 5 Assay Kit; read-out: Inhibitory activity (pIC50 class) (converted)
property_name: IC50

See these solved cases before continuing.
{"compound": "Cc1nc(C(=O)c2cc(F)ccc2-c2ncc(CCN)cn2)cc(N2CCOCC2)n1", "experimental_target": "Human TRPC6 (Homo sapiens, UniProt Q9Y210)", "IC50": "0.01 to 1 µM"}
{"compound": "Cc1c(Oc2cc(F)ccc2-c2ncc(CCN)cn2)cnn1CC(F)(F)F", "experimental_target": "Human TRPC6 (Homo sapiens, UniProt Q9Y210)", "IC50": "> 1 µM"}
{"compound": "Cc1nc(Oc2cc(C#N)ccc2-n2cc([C@@H](O)CN)cn2)cc(N2CCC(C(F)(F)F)CC2)n1", "experimental_target": "Human TRPC6 (Homo sapiens, UniProt Q9Y210)", "IC50": "< 0.01 µM"}

// moving on: another record for IC50
Query :: Provide the documented IC50 with Human TRPC6 (Homo sapiens, UniProt Q9Y210) as the system for Cn1nc(C2CC2)cc1Oc1cc(C#N)ccc1-c1ccc(CN2CCOCC2)cn1
Result :: > 1 µM

====

Biological target: Human TRPC6 (Homo sapiens, UniProt Q9Y210)
Construct: expressed in transfected cells
Test: Evaluation of TRPC6 channel inhibitory activity (1), FLIPR Calcium 5 Assay Kit, OAG stimulation (Compound Nos. 1-1293)
Type: cell-based
Settings: Human TRPC6 stably-expressing cells, OAG 30 μM, FLIPR Calcium 5 Assay Kit; read-out: Inhibitory activity (pIC50 class) (converted)
property_name: IC50

{"compound": "COC(=O)C(N)c1ccc(-c2ccc(C#N)cc2Oc2cc(C)nc(N3CCOCC3)c2)nc1 (centres unmarked)", "IC50": "10 to 1000 nM"}
{"compound": "CN(C)c1cc(Oc2cc(C#N)ccc2-c2ccc([C@@H](F)CN)cn2)n(C)n1", "IC50": "< 10 nM"}
{"compound": "Cn1nc(C2CC2)cc1Oc1cc(C#N)ccc1-c1ccc(CCN)cn1", "IC50": "< 10 nM"}
{"compound": "Cc1nc(Oc2cc(C#N)ccc2-n2cc(C(O)C(C)(C)N)cn2)cc(N2CCOCC2)n1 (centres unmarked)", "IC50": "10 to 1000 nM"}

Query :: Please report the recorded IC50 for Cc1nc(Oc2cc(C#N)ccc2-c2ccc(C(CN)C(F)F)cc2)cc(N2CCOCC2)n1 (centres unmarked) .
Result :: < 10 nM

====

Below: a set of entries, each annotated with reported IC50.
Biological target: Human TRPC6 (Homo sapiens, UniProt Q9Y210)
Construct: expressed in transfected cells
Experiment: Evaluation of TRPC6 channel inhibitory activity (1), FLIPR Calcium 5 Assay Kit, OAG stimulation (Compound Nos. 1-1293)
Type: cell-based
Conditions: Human TRPC6 stably-expressing cells, OAG 30 μM, FLIPR Calcium 5 Assay Kit; read-out: Inhibitory activity (pIC50 class) (converted)

{"compound": "Cc1nc(Oc2cc(C#N)ccc2-n2ncc3c2CNCC3)cc(N2CCCCC2)n1", "result": "> 1000 nM"}
{"compound": "Cc1cc(Sc2cc(C#N)ccc2-c2ncc(CCN)cn2)cc(N2CCOCC2)n1", "result": "10 to 1000 nM"}
{"compound": "Cc1nc(Sc2cc(C#N)ccc2-c2ncc(CCN)cn2)cc(N2CCCC2)n1", "result": "10 to 1000 nM"}
{"compound": "Cn1nc(C2CC2)cc1Oc1cc(C#N)ccc1-c1cccc(CCN)n1", "result": "> 1000 nM"}
{"compound": "C#CCOc1cc(Oc2cc(C#N)ccc2-c2ncc(CCN)cn2)nc(C)n1", "result": "> 1000 nM"}

Query :: Please report the recorded IC50 for Cn1nc(C2CC2)cc1Oc1cc(C#N)ccc1-c1ncc([C@@H](O)CN)cn1 .
Result :: < 10 nM

Query :: Please report the recorded IC50 for Cc1nc(Oc2cc(C#N)ccc2-n2cc([C@H](O)CN)cn2)cc(-c2cccc(C(F)(F)F)c2)n1 .
Result :: 10 to 1000 nM

Query :: Please report the recorded IC50 for Cc1nc(C2CCOCC2)cn1Cc1cc(C#N)ccc1-c1ccc([C@H](O)CN)cn1 .
Result :: > 1000 nM
